These measurements were taken from the supplement of paper PMC6470124.

- MEASUREMENT_DESCRIPTION: absolute recovery over mixed-bed multilayer solid-phase extraction; higher = better recovery
- CONDITIONS_USED: wastewater effluent; enrichment method: SPE
absolute recovery overview
PARAMETER: absolute recovery (%)

COMPOUND | MEASUREMENT_UNITS | EXPERIMENTAL_VALUE
C=C1CC2C(CCC3(C)C(=O)CCC23)C2(C)C=CC(=O)C=C12 (stereo not drawn) [Exemestan] | % | 93.2
O=[N+]([O-])C(Br)(CO)CO [Bronopol] | % | 7
CCOC1Oc2ccc(OS(C)(=O)=O)cc2C1(C)C (stereo not drawn) [Ethofumesat] | % | 96.1
C=CC(=O)OCCOC(=O)CCC(=O)[O-] [Mono(2-acryloyloxyethyl)-succinate] | % | 61.7
COC(=O)c1ccc(I)cc1S(=O)(=O)[N-]C(=O)Nc1nc(C)nc(OC)n1 [Iodosulfuron-methyl] | % | 101
NS(=O)(=O)c1cc2c(cc1Cl)NCNS2(=O)=O [Hydrochlorothiazid] | % | 89.1
Cc1cccc(C)c1N(Cn1cccn1)C(=O)CS(=O)(=O)[O-] [Metazachlor-ESA] | % | 96.8
CCC1OC(=O)C(C)C(OC2CC(C)(OC)C(O)C(C)O2)C(C)C(OC2OC(C)CC([NH+](C)C)C2O)C(C)(O)CC(C)C[NH+](C)C(C)C(O)C1(C)O (stereo not drawn) [Azithromycin] | % | 90.8

====

- MEASUREMENT_DESCRIPTION: absolute recovery over mixed-bed multilayer solid-phase extraction; higher = better recovery
- CONDITIONS_USED: wastewater effluent; enrichment method: SPE
Let's look at some compounds and their measured absolute recovery.

COMPOUND | absolute recovery (%)
Cc1nc(N(C)C)nc(OC(=O)N(C)C)c1C [Pirimicarb] | 93.5
COC(=O)C(C)N(C(=O)Cc1ccccc1)c1c(C)cccc1C (centres undefined) [Benalaxyl] | 96
CC12CCC(=O)C=C1CCC1C2C(=O)CC2(C)C1CCC2(O)C(=O)CO (centres undefined) [Cortison] | 74.8
CCc1cccc(C)c1N(C(=O)C(=O)[O-])C(C)COC (centres undefined) [Metolachlor-OXA] | 87.9
CCCCc1c(C)nc(NCC)nc1OS(=O)(=O)N(C)C [Bupirimate] | 93.3
O=C([O-])C(c1ccccc1)C1CCCC[NH2+]1 (centres undefined) [Ritalinic-acid] | 88.9
CC[N+]1([O-])CCCC1CNC(=O)c1cc(S(=O)(=O)CC)c(N)cc1OC (centres undefined) [Amisulpride-N-Oxide] | 93.2
CC(C)N(C(=O)C(=O)[O-])c1ccc(F)cc1 [Flufenacet-OXA] | 93
COc1nc(C)nc(N)n1 [2-Amino-4-methoxy-6-methyl-1-3-5-triazin] | 102

====

- MEASUREMENT_DESCRIPTION: absolute recovery over vacuum-assisted evaporative concentration; higher = better recovery
- CONDITIONS_USED: wastewater influent; enrichment method: VEC

MOLECULE | absolute recovery [%]
Cn1ncc(N)c(Cl)c1=O | 104
CC([NH3+])Cc1ccccc1 (stereo not given) | 85.5
O=C(Cc1ccccc1)NC(=NOCC1CC1)c1c(C(F)(F)F)ccc(F)c1F | 117
COc1ccc2c3c1OC1C(O)C=CC4C(C2)[NH+](C)CCC341 (stereo not given) | 102
C[N+]1([O-])CCN2c3ccccc3Cc3ccccc3C2C1 (stereo not given) [Mianserin-N-Oxide] | 105
Cc1nn(-c2cc(NS(C)(=O)=O)c(Cl)cc2Cl)c(=O)n1C(F)F | 107
COc1cc(OC)n2nc([N-]S(=O)(=O)c3c(C(F)(F)F)ccnc3OC)nc2n1 | 103
[NH3+]C(CO)(CO)CO | 73.2
NC(=O)N=C1SCCN1Cc1ccc(Cl)nc1 [Thiacloprid-amide] | 104
CC(C)Nc1nc(N)nc(Cl)n1 | 101
